All values here come from ChEMBL document CHEMBL4513216.

// reported cytotoxicity at 10 µM for each item listed
Experiment: Toxicity liver stage against HepG2, at 10uM
Assay type: cell-based
Parameters: test concentration 10 uM, cell line HepG2-A16-CD81EGFP
Settings: human, HepG2-A16-CD81EGFP cells; read-out: INHIBITION

# Compound, Measurement unit, cytotoxicity at 10 µM
data = [
    ("Cc1c(C(=O)NCC2CCCO2)nnn1-c1cccc2c1CCN(C)C2 (centres undefined)", "%", 1.96),
    ("Nc1nnc(SCc2cc(=O)n3c4c(sc3n2)CCCC4)[nH]1", "%", -4.19),
    ("CCn1ccnc1CN1CCCN(C(=O)c2cc[nH]n2)CC1", "%", -8.04),
    ("COc1ccc(Cl)cc1CS(=O)(=O)Cc1cc(C)on1", "%", 6.06),
    ("COc1c(C)cnc(CN2CCC(N(C)S(C)(=O)=O)CC2)c1C", "%", 0.141),
    ("O=C(COC1CCCCC1)NS(=O)(=O)c1ccc2c(c1)OCCCO2", "%", 3.85),
    ("CC(C)N(C)CCNC(=O)N(C)CC1CCOCC1", "%", -17.2),
    ("CN1CCN(C(=O)c2cnn(-c3ccccc3Cl)c2)CC1", "%", -5.51),
    ("CS(=O)(=O)N1CCCCC12CCN(c1nncs1)CC2", "%", 10.6),
    ("CCOC(C)C(=O)N(C)C1CCN(c2ccc(OC)cc2)CC1 (centres undefined)", "%", -1.57),
    ("CC(C)(C)c1cc(CNC(=O)c2cc(COc3ccccc3)[nH]n2)[nH]n1", "%", 8.28),
    ("COCCN1C(=O)CCC12CCN(c1ncc(F)cn1)CC2", "%", 0.632),
    ("CC(C)(C)c1nc(C(C)(C)NC(=O)C2CC(=O)N(CC3CC3)C2)no1 (centres undefined)", "%", -5.4),
    ("CC(=O)Nc1ccc(Cl)c(C(=O)N(C)C(C)c2ccon2)c1 (centres undefined)", "%", -48.7),
    ("CO[C@@H]1CCN(c2nnc(C)s2)C[C@@H]1Cc1cccc(C)c1", "%", 11.8),
    ("Cn1cc(Cl)cc1C(=O)N1CCCN(Cc2nccn2C)CC1", "%", -6.04),
    ("CCOCCN1CCN(Cc2coc(-c3cccc(F)c3)n2)CC1", "%", -2.87),
    ("COCCn1ccc2c(NC(=O)C(C)C)cccc21", "%", 1.01),
    ("C1CCC(NC2CCCN(Cc3noc(C4CC4)n3)C2)C1 (centres undefined)", "%", -5.05),
    ("c1cncc(COCC2CN(Cc3ccco3)Cc3ccnn3C2)c1 (centres undefined)", "%", -14.4),
    ("CNC(=O)Cn1ccc2ccc(NC(=O)NC(C)C(C)C)cc21 (centres undefined)", "%", 3.36),
    ("CN(Cc1nc(CS(C)(=O)=O)no1)c1ccccc1", "%", 4.04),
    ("COC1CCN(C(=O)c2cc(-c3ccc(Cl)cc3)on2)CC1", "%", -0.885),
    ("Cc1cnn(CC(C)NCc2ccc(OCc3cscn3)cc2)c1 (centres undefined)", "%", -9.35),
]

###

Assay: Toxicity liver stage against HepG2, at 10uM
Format: cell-based
Design: test concentration 10 uM, cell line HepG2-A16-CD81EGFP
Settings: human, HepG2-A16-CD81EGFP cells; read-out: INHIBITION
// reported cytotoxicity at 10 µM for each item listed

# Compound, cytotoxicity at 10 µM
rows = [
    ("CCC(C)(C)NC(=O)Cn1nc(C)nc1-c1ccccc1", "-15.4%"),
    ("CCNC(=O)NC(=O)CN1CCC(c2cccc(F)c2)C1 (stereo unspecified)", "-9.45%"),
    ("O=C(CS(=O)(=O)C1CCCC1)NC1CCc2nccn2C1 (stereo unspecified)", "-17%"),
    ("CCc1ccc(CN2Cc3nccn3CC(CN3CCOCC3)C2)o1 (stereo unspecified)", "-87.9%"),
    ("CC1N(CC2CC2)C(=O)COC12CCN(C(=O)c1cscn1)CC2 (stereo unspecified)", "-8.04%"),
    ("COc1c(CNCc2ccnc(N(C)C)c2)c(C(C)C)nn1C", "-6.3%"),
    ("COCC(=O)Nc1ccc(N2CCC(OC)CC2)c(C(F)(F)F)c1", "-0.0399%"),
    ("CCS(=O)(=O)N1CCC2(CC1)CCn1c(-c3cnn(C)c3)cnc12", "-138%"),
    ("Cn1c(=O)[nH]c(=O)n2c(CC(=O)Nc3c(Cl)cccc3Cl)cnc12", "8.52%"),
    ("CCNC(=O)CCC(=O)NC(Cc1ccccc1)c1sccc1C (stereo unspecified)", "-6.69%"),
    ("COc1ccc(COCC(O)CNC(=O)c2cc(C)oc2C)cc1 (stereo unspecified)", "-13.3%"),
]

###

// reported cytotoxicity at 10 µM for each item listed
Assay: Toxicity liver stage against HepG2, at 10uM
Assay type: cell-based
Parameters: test concentration 10 uM, cell line HepG2-A16-CD81EGFP
Conditions: human, HepG2-A16-CD81EGFP cells; read-out: INHIBITION
Measured attribute: cytotoxicity at 10 µM

# Compound, Assay value
records = [
    ("COc1ccc(/C=C/CN2C[C@@H]3CC[C@H]2CN(S(=O)(=O)N(C)C)C3)cc1", "-2.72%"),
    ("NC(=O)C1CCN(C(=O)NCc2ccccc2-n2cccn2)C1 (centres undefined)", "-18.4%"),
    ("COc1ccc(C(=O)NCC(c2cccn2C)N2CCCC2)cc1OC (centres undefined)", "6.86%"),
    ("CCOc1ccccc1OCC(=O)NCc1ncc(C)c(OC)c1C", "1.09%"),
    ("Cc1cccc(N2CCC(N3CCCC4(CN(C)C(=O)O4)C3)CC2)c1C (centres undefined)", "-12.8%"),
    ("COc1ccccc1-c1ncc(CN2CCC3(CCN(C)C3)CC2)cn1", "3.92%"),
    ("CCc1nc(CN2CCCN(C(=O)COC(C)C)CC2)cs1", "-15%"),
    ("Cc1nc(N)nc(N2CCOc3ccc(CO)cc3C2)c1C", "4.23%"),
    ("COCCC(=O)NCC1Cn2nnc(-c3cccc(F)c3)c2CO1 (centres undefined)", "0.0508%"),
    ("CCCN1CCN(C(=O)c2ccc(Cn3cc(Br)cn3)cc2)CC1", "-6.11%"),
    ("Clc1ccccc1CN1CCc2nc(C3CCCNC3)ncc2C1 (centres undefined)", "-19.7%"),
    ("Cc1cc(C(=O)NCCCn2nccc2C2CC2)c(=O)[nH]c1C", "9%"),
    ("O=C(NS(=O)(=O)c1cc(Cl)sc1Cl)c1cccc2c1OCCO2", "5.32%"),
    ("CN(C)C(=O)COC[C@@H]1CC[C@H]2[C@H](CCN2c2ccccn2)O1", "10%"),
    ("Cn1cc2c(n1)C(CNC1CCOCC1)OCC2 (centres undefined)", "9.31%"),
    ("COCC(=O)N1CCN(Cc2nnc(C(C)(C)C)o2)CC1", "7.66%"),
    ("O=C(NCCN1CCCC1)c1ccc2c(-c3nccs3)noc2c1", "-2.79%"),
    ("CCN(CC)Cc1ccc(C(=O)NC2CCc3cc(Cl)ccc32)o1 (centres undefined)", "-3.81%"),
    ("CN(Cc1ccncn1)C(=O)C1(Oc2ccc(Cl)cc2)CCNCC1", "18.5%"),
    ("Fc1cccc(CN2CCC(c3noc(-c4cnccn4)n3)CC2)c1F", "-1.37%"),
    ("CS(=O)(=O)N1CCCC12CCCN(C(=O)c1ccno1)C2 (centres undefined)", "-172%"),
    ("COc1cccc2cc(CNCc3ccnc(N4CCOCC4)c3)oc12", "-8.55%"),
    ("COCCCNC(=O)C(C)(C)N(C)C1CCCC1", "-51.3%"),
    ("Cc1nnc(Nc2cccc(C3CCN(CCO)CC3)n2)s1", "2.37%"),
]

###

Assay: Toxicity liver stage against HepG2, at 10uM
Assay type: cell-based
Design: test concentration 10 uM, cell line HepG2-A16-CD81EGFP
Details: human, HepG2-A16-CD81EGFP cells; read-out: INHIBITION
// reported cytotoxicity at 10 µM for each item listed
Measured attribute: cytotoxicity at 10 µM (%)

# Compound, Assay value
data = [
    ("CN(C)CCO[C@@H]1CC[C@H]2[C@H]1OCCN2C(=O)c1ccnnc1", -2.1),
    ("CCOC(=O)N1CCN(C(=O)Cn2ccc3ncccc3c2=O)CC1", -4.99),
    ("CCC(C)(CC(=O)OC)NCc1c(C)noc1C (configuration not stated)", -3.19),
    ("CN(Cc1ccsc1)C(=O)CN1CCCC1Cn1cccn1 (configuration not stated)", -3.78),
    ("O=C(CCc1cn[nH]c1)N1C[C@@H](CN2CCCCCC2)[C@@H](CO)C1", 2.62),
    ("O=C(c1ccccc1F)N1CCC2(CC1)CC(Oc1ccccn1)CO2 (configuration not stated)", -113),
    ("CC(=O)Nc1nc(C(=O)NCCOc2ccccc2)cs1", 6.11),
    ("CC(=O)Cc1c(C)nn(-c2cncc(N)c2)c1C", -4.05),
    ("O=c1ccc2c(n1Cc1cccnc1)CCN(C1CCOC1)CC2 (configuration not stated)", 9.58),
    ("CCC(=O)NC1CCCN(C(=O)Nc2cccc(COC(C)C)c2)C1 (configuration not stated)", 7.96),
    ("Cc1cc(CN(C)C(=O)CN2CC3(CCNCC3)OC2=O)n(C)n1", 9.81),
    ("CN1CCCN(CCCNC2CCc3cc4c(cc32)OCCO4)CC1 (configuration not stated)", -3.68),
]
